Measured Activity by item
Tested on: Mus musculus
Experiment: Toxicity in Plasmodium yoelii infected CF-1 mouse assessed as weight loss at 25 mg/kg, po qd for 3 days relative to control
Assay type: organism-based
Set-up: dose 25 mg/kg, route oral
Settings: in vivo, 72 h

>  <Substance smiles>
CCCCCCc1cc(Cc2ccc(Cl)cc2)c(/C=C2\N=C(c3ccc[nH]3)C=C2OC)[nH]1

>  <Activity, %>
96

$$$$
>  <Substance smiles>
COC1=CC(c2ccc[nH]2)=N/C1=C\c1[nH]ccc1Cc1ccc(Cl)cc1

>  <Activity, %>
105

$$$$
>  <Substance smiles>
CCCc1cc(CCC2CCCCC2)c(/C=C2\N=C(c3ccc[nH]3)C=C2OC)[nH]1

>  <Activity, %>
84.5

$$$$
>  <Substance smiles>
COC1=CC(c2ccc[nH]2)=N/C1=C\c1[nH]c(Cc2ccc(Cl)cc2)cc1Cc1ccc(Cl)cc1

>  <Activity, %>
102.5

$$$$
>  <Substance smiles>
CCCc1cc(Cc2ccc(Cl)cc2)c(/C=C2\N=C(c3ccc[nH]3)C=C2OC)[nH]1

>  <Activity, %>
87.6

$$$$
>  <Substance smiles>
CCCCCCCCc1cc(Cc2ccc(Cl)cc2)c(/C=C2\N=C(c3ccc[nH]3)C=C2OC)[nH]1

>  <Activity, %>
93.4

$$$$
>  <Substance smiles>
CCCCCCCCc1cc(CCC)c(/C=C2\N=C(c3ccc[nH]3)C=C2OC)[nH]1

>  <Activity, %>
92.4

$$$$
